Assay: AUC 0 to 4 hours of cefsulodin (sodium) suppositories with polyoxyethylene cholesterol ethers (Experiment Example 4)
Type: in vivo, rats
Conditions: rat, plasma, 20 mg/kg, rectal suppository 50 mg, 10 % cefsulodin (sodium), 5 % POE (10) cholesterol ether, Witepsol H-5
measure.name: AUC(0-t) at 4 h (ng·h/mL)
Just the number please, in ng·h/mL, no unit attached.

// AUC(0-t) at 4 h lookup, compound = NC(=O)c1cc[n+](CC2=C(C(=O)O)N3C(=O)[C@@H](NC(=O)[C@@H](c4ccccc4)S(=O)(=O)[O-])[C@H]3SC2)cc1 [Cefsulodin sodium] , result: 30400

----------
Test: AUC 0 to 4 hours of cefsulodin (sodium) suppositories with polyoxyethylene cholesterol ethers (Experiment Example 4)
Type: in vivo, rats
Conditions: rat, plasma, 20 mg/kg, rectal suppository 50 mg, 10 % cefsulodin (sodium), 5 % POE (30) cholesterol ether, Witepsol H-5
measure.name: AUC(0-t) at 4 h (ng·h/mL)
Just the number please, in ng·h/mL, no unit attached.

// AUC(0-t) at 4 h lookup, molecule = NC(=O)c1cc[n+](CC2=C(C(=O)O)N3C(=O)[C@@H](NC(=O)[C@@H](c4ccccc4)S(=O)(=O)[O-])[C@H]3SC2)cc1 [Cefsulodin sodium] , result: 37900

----------
Assay: AUC 0 to 4 hours of cefsulodin (sodium) suppositories with polyoxyethylene cholesterol ethers (Experiment Example 4)
Format: in vivo, rats
Conditions: rat, plasma, 20 mg/kg, rectal suppository 50 mg, 10 % cefsulodin (sodium), 5 % POE (25) cholesterol ether, Witepsol H-5
measure.name: AUC(0-t) at 4 h (ng·h/mL)
Just the number please, in ng·h/mL, no unit attached.

// AUC(0-t) at 4 h lookup, compound = NC(=O)c1cc[n+](CC2=C(C(=O)O)N3C(=O)[C@@H](NC(=O)[C@@H](c4ccccc4)S(=O)(=O)[O-])[C@H]3SC2)cc1 [Cefsulodin sodium] , result: 35900

----------
Test: in vivo
Design: species or system SD strain male rats
Conditions: rat
measure.name: AUC (ng·h/mL)
Just the number please, in ng·h/mL, no unit attached.

// AUC lookup, molecule = CC1(C)S[C@@H]2[C@H](NC(=O)C(c3ccccc3)S(=O)(=O)O)C(=O)N2[C@H]1C(=O)O (stereo partly shown) , result: 92800
